Experiment: Plasma pharmacokinetics of SHR9146 in mice (LC-MS/MS, non-compartmental analysis)
Assay type: in vivo, ICR mice
Conditions: both sexes, ICR, mouse, plasma, intravenous, 5 mg/kg, 5 mg/kg i.v.; 4 h; read-out: plasma drug concentration, mean (n=6)
ASSAY READOUT: concentration at 4 h

Input OCCn1cc(-c2ccc(N3CCC([C@H]4c5c(F)cccc5-c5cncn54)CC3)cc2)cn1 [SHR9146] , output reported concentration at 4 h.
126 ng/mL

====

Test: Plasma pharmacokinetics of SHR9146 in mice (LC-MS/MS, non-compartmental analysis)
Assay type: in vivo, ICR mice
Conditions: both sexes, ICR, mouse, plasma, po, 40 mg/kg, 40 mg/kg i.g. single dose; all mice (Totol, 3 male + 3 female); plasma; read-out: Cmax
ASSAY READOUT: Cmax (ng/mL)
Write down the numeric answer in ng/mL and omit the unit.

Input OCCn1cc(-c2ccc(N3CCC([C@H]4c5c(F)cccc5-c5cncn54)CC3)cc2)cn1 , output reported Cmax.
12400
